Where do these numbers come from? They come from paper PMC6010129.

TARGET_OR_SYSTEM: hCA II (Homo sapiens, UniProt P00918)
Construct: gene CA2; cytosolic isoform
METHOD: stopped-flow CO2 hydrase assay
Type: biochemical
Quick reference: Ki of the listed items.
MEASUREMENT_NAME: Ki (nM)

> print(dat)
                                   compound                       target.or.system  result.number
1  NS(=O)(=O)c1ccc(NCC(=O)N2N=C(c3ccc(Cl)cc3)CC2c2c[nH]c3ccccc23)cc1 (stereo not drawn) [5k]  hCA II (Homo sapiens, UniProt P00918)            392
2  NS(=O)(=O)c1ccc(NCC(=O)N/N=C/c2ccc(O)cc2)cc1 [6g]  hCA II (Homo sapiens, UniProt P00918)            255
3  Cc1ccc(C2CC(c3ccc(Cl)cc3)=NN2C(=O)CNc2ccc(S(N)(=O)=O)cc2)cc1 (stereo not drawn) [5d]  hCA II (Homo sapiens, UniProt P00918)            426

* * *

TARGET_OR_SYSTEM: mtCA 3 (Mycobacterium tuberculosis)
Construct: beta-class carbonic anhydrase
Sequence (P96878 entry or part of it): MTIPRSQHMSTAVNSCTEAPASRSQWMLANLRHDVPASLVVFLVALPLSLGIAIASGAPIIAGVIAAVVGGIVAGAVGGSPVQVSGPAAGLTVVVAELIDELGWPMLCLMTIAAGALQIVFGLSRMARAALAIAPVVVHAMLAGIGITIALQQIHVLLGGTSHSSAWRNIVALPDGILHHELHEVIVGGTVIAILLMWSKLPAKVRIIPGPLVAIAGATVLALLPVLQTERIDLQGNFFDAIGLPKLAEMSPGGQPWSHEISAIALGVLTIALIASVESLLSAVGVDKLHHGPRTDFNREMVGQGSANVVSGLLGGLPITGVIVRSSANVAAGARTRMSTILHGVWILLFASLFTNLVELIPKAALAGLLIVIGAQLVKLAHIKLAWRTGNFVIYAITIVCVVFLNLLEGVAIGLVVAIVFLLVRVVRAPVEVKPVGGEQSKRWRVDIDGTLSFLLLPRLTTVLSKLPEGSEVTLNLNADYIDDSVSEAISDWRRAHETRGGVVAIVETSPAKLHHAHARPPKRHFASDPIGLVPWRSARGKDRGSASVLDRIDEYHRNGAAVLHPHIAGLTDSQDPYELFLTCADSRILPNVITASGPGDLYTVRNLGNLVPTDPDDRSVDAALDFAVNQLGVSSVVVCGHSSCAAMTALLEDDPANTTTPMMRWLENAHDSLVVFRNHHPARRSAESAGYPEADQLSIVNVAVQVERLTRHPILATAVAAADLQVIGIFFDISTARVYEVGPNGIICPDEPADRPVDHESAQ
METHOD: biochemical
Design: stopped-flow CO2 hydration assay, phenol red absorbance at 557 nm, 15 min pre-incubation, Ki by Cheng-Prusoff
Method: An Sx.18Mv-R Applied Photophysics (Oxford, UK) stopped-flow instrument has been used to assay the catalytic activity of various CA isozymes for CO2 hydration reaction. […] The uncatalysed rates were determined in the same manner and subtracted from the total observed rates. […]
Quick reference: log10(Ki) of the listed items.
MEASUREMENT_NAME: log10(Ki) (log10 of the value in nM)

> print(dat)
                                    molecule                     target.or.system  result.number
 1  COc1cc(/C=N/NC(=O)CNc2ccc(S(N)(=O)=O)cc2)cc(OC)c1O  mtCA 3 (Mycobacterium tuberculosis)           3.30
 2  COc1ccc(C2CC(c3ccc(Cl)cc3)=NN2C(=O)CNc2ccc(S(N)(=O)=O)cc2)cc1OC (stereo not shown)  mtCA 3 (Mycobacterium tuberculosis)           2.27
 3  CC1=NN(C(=O)CNc2ccc(S(N)(=O)=O)cc2)C(c2ccc(F)cc2)C1 (stereo not shown)  mtCA 3 (Mycobacterium tuberculosis)           2.40
 4  CC1=NN(C(=O)CNc2ccc(S(N)(=O)=O)cc2)C(c2ccc(C)cc2)C1 (stereo not shown)  mtCA 3 (Mycobacterium tuberculosis)           2.44
 5  NS(=O)(=O)c1ccc(NCC(=O)N2N=C(c3ccc(Cl)cc3)CC2c2cccs2)cc1 (stereo not shown)  mtCA 3 (Mycobacterium tuberculosis)           2.37
 6  NS(=O)(=O)c1ccc(NCC(=O)N2N=C(c3ccc(Cl)cc3)CC2c2ccccc2Cl)cc1 (stereo not shown)  mtCA 3 (Mycobacterium tuberculosis)           2.33
 7  NS(=O)(=O)c1ccc(NCC(=O)N/N=C/c2ccccc2O)cc1  mtCA 3 (Mycobacterium tuberculosis)           3.33
 8  NS(=O)(=O)c1ccc(NCC(=O)N2N=C(c3ccc(Cl)cc3)CC2c2ccccc2O)cc1 (stereo not shown)  mtCA 3 (Mycobacterium tuberculosis)           2.17
 9  CC1=NN(C(=O)CNc2ccc(S(N)(=O)=O)cc2)C(c2cccs2)C1 (stereo not shown)  mtCA 3 (Mycobacterium tuberculosis)           3.16
10  CC1=NN(C(=O)CNc2ccc(S(N)(=O)=O)cc2)C(c2ccc(Cl)cc2)C1 (stereo not shown)  mtCA 3 (Mycobacterium tuberculosis)           3.11
11  NS(=O)(=O)c1ccc(NCC(=O)N2N=C(c3ccc(Cl)cc3)CC2c2c[nH]c3ccccc23)cc1 (stereo not shown)  mtCA 3 (Mycobacterium tuberculosis)           2.10
12  CC1=NN(C(=O)CNc2ccc(S(N)(=O)=O)cc2)C(c2ccccc2Cl)C1 (stereo not shown)  mtCA 3 (Mycobacterium tuberculosis)           2.79
13  COc1cc(/C=N/NC(=O)CNc2ccc(S(N)(=O)=O)cc2)cc(OC)c1OC  mtCA 3 (Mycobacterium tuberculosis)           2.33
14  NS(=O)(=O)c1ccc(NCC(=O)N2N=C(c3ccc(Cl)cc3)CC2c2ccccc2)cc1 (stereo not shown)  mtCA 3 (Mycobacterium tuberculosis)           3.26
15  NS(=O)(=O)c1ccc(NCC(=O)N2N=C(c3ccc(Cl)cc3)CC2c2c3ccccc3cc3ccccc23)cc1 (stereo not shown)  mtCA 3 (Mycobacterium tuberculosis)           2.20
16  CC1=NN(C(=O)CNc2ccc(S(N)(=O)=O)cc2)C(c2ccccc2)C1 (stereo not shown)  mtCA 3 (Mycobacterium tuberculosis)           3.20
17  Cc1ccc(C2CC(c3ccc(Cl)cc3)=NN2C(=O)CNc2ccc(S(N)(=O)=O)cc2)cc1 (stereo not shown)  mtCA 3 (Mycobacterium tuberculosis)           2.24
